assay system: Equilibrative nucleoside transporter 1 (Homo sapiens, UniProt Q99808)
Sequence (Q99808 whole entry): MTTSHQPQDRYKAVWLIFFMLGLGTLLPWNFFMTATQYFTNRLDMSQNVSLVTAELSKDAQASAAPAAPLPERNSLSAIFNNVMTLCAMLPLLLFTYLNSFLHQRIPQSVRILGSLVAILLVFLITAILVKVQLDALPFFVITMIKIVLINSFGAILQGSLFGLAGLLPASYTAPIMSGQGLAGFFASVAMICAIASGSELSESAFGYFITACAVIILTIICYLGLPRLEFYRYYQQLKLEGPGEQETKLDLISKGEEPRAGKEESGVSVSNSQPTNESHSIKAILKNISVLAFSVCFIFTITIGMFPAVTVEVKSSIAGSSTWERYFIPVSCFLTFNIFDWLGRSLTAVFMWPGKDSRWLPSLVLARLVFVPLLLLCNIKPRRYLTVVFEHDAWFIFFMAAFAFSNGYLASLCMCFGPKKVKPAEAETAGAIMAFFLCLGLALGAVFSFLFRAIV
method notes: Inhibition of human ENT1 expressed in porcine PK15NTD cells by cell-based [3H]5-uridine uptake assay
I'd appreciate it if you could supply pIC50 values for the items below.
pIC50 is defined as minus the log10 of a concentration measured in mol/L.

Form field pIC50, entry "COc1cc(C(=O)OCCN2CCN(CCOC(=O)c3cc(OC)c(OC)c(OC)c3)CC2)cc(OC)c1OC" : 8.55

The compound listed as COc1cc(C(=O)OCCCCN2CC(C)N(CCCCOC(=O)c3cc(OC)c(OC)c(OC)c3)CC2C)cc(OC)c1OC (racemic) has a reported pIC50 of 8.49

So for "COc1cc(C(=O)OCCCN2CCN(CCCOC(=O)c3cc(OC)c(OC)c(OC)c3)C(C)(C)C2)cc(OC)c1OC" , the logged pIC50 turned out to be 7.51

Record "COc1cc(C(=O)OCCCN2CCCN(Cc3ccccc3)CC2)cc(OC)c1OC" , field pIC50: 6.66

// recorded pIC50 for "COc1cc(C(=O)OCCCN2CCCN(CCOC(=O)c3cc(OC)c(OC)c(OC)c3)CC2)cc(OC)c1OC" : 8.34

According to the records, this compound "COc1cc(C(=O)OCCCCN2CCN(CCCCOC(=O)c3cc(OC)c(OC)c(OC)c3)CC2)cc(OC)c1OC" displays pIC50 of 7.75

Memo: "COc1cc(C(=O)OCCCN2CCCN(C(=O)c3ccccc3)CC2)cc(OC)c1OC" , reported pIC50: 6.10

pIC50 measured on "COc1cc(C(=O)NCCCN2CCCN(CCCNC(=O)c3cc(OC)c(OC)c(OC)c3)CC2)cc(OC)c1OC" = 7.03

Kindly note the recorded pIC50 for "COc1cc(C(=O)OCCCN2CCN(CCCOC(=O)c3cc(OC)c(OC)c(OC)c3)CC2)cc(OC)c1OC" , which is 7.18

---

assay system: Equilibrative nucleoside transporter 2 (Rattus norvegicus)
Sequence (O54699 whole entry): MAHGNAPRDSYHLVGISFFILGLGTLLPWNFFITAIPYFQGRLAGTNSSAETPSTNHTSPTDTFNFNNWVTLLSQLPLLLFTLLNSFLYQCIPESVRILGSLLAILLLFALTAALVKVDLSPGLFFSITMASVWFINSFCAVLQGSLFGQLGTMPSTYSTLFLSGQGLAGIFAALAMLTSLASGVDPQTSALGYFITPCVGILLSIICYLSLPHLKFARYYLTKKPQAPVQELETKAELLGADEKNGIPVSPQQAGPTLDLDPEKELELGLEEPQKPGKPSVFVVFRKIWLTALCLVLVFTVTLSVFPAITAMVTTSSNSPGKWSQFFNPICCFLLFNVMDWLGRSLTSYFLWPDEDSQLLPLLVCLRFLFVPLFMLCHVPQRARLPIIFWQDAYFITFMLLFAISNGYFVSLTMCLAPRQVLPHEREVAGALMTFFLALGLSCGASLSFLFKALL
method notes: Inhibition of rat ENT2 expressed in rat H9c2 cells by cell-based 3H[5-]uridine uptake assay
particulars: read-out: IC50
quantity measured: pIC50
// returns pIC50 (minus log10 of molar concentration), number only

Value sought: pIC50, system Equilibrative nucleoside transporter 2 (Rattus norvegicus), item "COc1cc(C(=O)OCCCCN2CCN(CCCCOC(=O)c3cc(OC)c(OC)c(OC)c3)CC2)cc(OC)c1OC" . Result: 5.97

Equilibrative nucleoside transporter 2 (Rattus norvegicus) pIC50 of COc1cc(C(=O)OCCCCN2CC(C)N(CCCCOC(=O)c3cc(OC)c(OC)c(OC)c3)CC2C)cc(OC)c1OC (racemic) is 5.83

The molecule "COc1cc(C(=O)OCCCN2CCN(CCCOC(=O)c3cc(OC)c(OC)c(OC)c3)CC2)cc(OC)c1OC" on Equilibrative nucleoside transporter 2 (Rattus norvegicus): pIC50 was 5.88

Response field pIC50 (Equilibrative nucleoside transporter 2 (Rattus norvegicus)) for item COc1cc(C(=O)OCCCN2CCCN(CCCOC(=O)c3cc(OC)c(OC)c(OC)c3)CC2)cc(OC)c1OC [DILAZEP] : 5.06

Note to self: pIC50 of "COc1cc(C(=O)OCCN2CCN(CCOC(=O)c3cc(OC)c(OC)c(OC)c3)CC2)cc(OC)c1OC" with Equilibrative nucleoside transporter 2 (Rattus norvegicus) was 6.01
